experimental.system: T1, P6f
T1 chain: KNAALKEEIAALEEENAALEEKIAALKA
assay.method.text: ITC; MicroCal PEAQ-ITC; syringe peptide (1 mM P5f, P13f; 5.6 mM S1h or 5.4 mM S3h) injected into the cell with the complementary peptide (100 µM P6f or P14f; 560 µM S2h or 540 µM S4h); 50 mM Tris pH 7.5, 150 mM NaCl, 1 mM TCEP; concentrations of the S peptides not stated
cond: both partners purified

[
  {
    "binder": "ENAALEEKIAALKEKNAALKEEIAALEA [P5f]",
    "Kd (µM)": 5.9
  }
]
